Test system: Saccharomyces cerevisiae
METHOD: protein stability index of tFT-peptide fusion (C-terminal peptide) (PSI (0-1 scale)); higher = more stable (slower turnover);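 also: PSI is a weighted mean of sequencing reads over stability bins, variants kept only with over 10 reads, mCherry proximal and sfGFP distal, peptide attached via GGGS linker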
ASSAY CONDITIONS: genetic background: cdc53-1; temperature: 37 C
Heads up, the class ranges for protein stability index are class 0 = under 0.6, class 1 = from 0.6 up to 0.7, class 2 = 0.7 and over

1) VVFSLLLWLFIS    class 0
2) VLLSSSLVFLIS    class 1
3) LFGRVLSGILSV    class 2
4) RTALSSPRPALL    class 2
5) SCRCIIFVCCFW    class 0
6) GGGVGVVWVRLG    class 1
7) QWRMLTCLMERL    class 0
8) VLVCYFCRYISH    class 0
9) PGRHSVRFVFVC    class 0
10) VRGWLAYLRWII    class 1
11) FGVLLVWWYGLF    class 0
12) RFFVLSFFFLVS    class 0
13) CFFMVGFVFYFV    class 0

* * *

Tested on: Saccharomyces cerevisiae
METHOD: protein stability index of tFT-peptide fusion (C-terminal peptide) (PSI (0-1 scale)); higher = more stable (slower turnover)
ASSAY CONDITIONS: genetic background: wild type; temperature: 30 C
The entries below come with measured protein stability index values attached.
RECORDED ENDPOINT: protein stability index

1) TPVSTNHFYTLE    0.613
2) PPPPGKTDRPSH    0.695
3) PLSPPPSLPVPL    0.659
4) RNNIKIKNTQQN    0.759
5) AGSHPSRLGIFS    0.733
6) HGSDTSIALRSG    0.622
7) FRGALFLLSSRV    0.571
8) KLREYGGLPISC    0.677
9) WFPNQCFENEIP    0.742
10) ICYGIHYAQRGS    0.646
11) LVSRLAGAVLGR    0.632
12) LPGPICSPPTGS    0.693
13) EVCFVWSLGEVL    0.623
14) PCPSVLPISLPH    0.713
15) KKKEKDKKTNKP    0.684
16) PKRNNRKAQQIS    0.405
17) FSPASCPILPPL    0.672
18) GCYGRVLELAWR    0.552
19) FELTLLSPVCFS    0.579

* * *

System: Saccharomyces cerevisiae
METHOD: protein stability index of tFT-peptide fusion (C-terminal peptide) (PSI (0-1 scale)); higher = more stable (slower turnover)
ASSAY CONDITIONS: genetic background: cdc53-1; temperature: 37 C
Decision: protein stability index compared against 0.7; not below it gives fulfilled, below it gives not fulfilled.

1. LSCFCLFCLSFC    not fulfilled
2. PPPPPPPFLFFL    fulfilled
3. RFGLPLLVVTWL    not fulfilled
4. YYKGGYLYLRLS    not fulfilled
5. WFLFVLCAWGFF    not fulfilled
6. SGCWGRRLWFFN    fulfilled
7. SFVCFFLNLFVY    not fulfilled
8. GVCRFFCLVFCS    not fulfilled
9. LPLPPPGSPPPL    fulfilled
10. RFHTFVFCLLCL    not fulfilled

* * *

Test system: Saccharomyces cerevisiae
METHOD: protein stability index of tFT-peptide fusion (C-terminal peptide) (PSI (0-1 scale)); higher = more stable (slower turnover)
ASSAY CONDITIONS: genetic background: cdc34-1; temperature: 37 C
RECORDED ENDPOINT: protein stability index

1. IRVFSFLLFGCF    0.465
2. NFKELMEKSKYR    0.704
3. CVISLVTAVRLF    0.514
4. FFSFTVLVSYGF    0.18
5. GDINRNTRYLEK    0.671
6. LLFGCLIRIGCS    0.268
7. DRRYIISLIYIL    0.32
8. WCFGSLLIRFSL    0.416
9. LSGIILGWSVSG    0.755
10. FCGWLGVYLVKG    0.591

* * *

System: Saccharomyces cerevisiae
METHOD: protein stability index of tFT-peptide fusion (C-terminal peptide) (PSI (0-1 scale)); higher = more stable (slower turnover)
ASSAY CONDITIONS: genetic background: cdc34-1; temperature: 37 C
Measured protein stability index determines class: band 1: < 0.4; band 2: ≥ 0.4 and < 0.6; band 3: ≥ 0.6

1. SFLCGCVVCWLW    band 2
2. RYTWHGICIVTR    band 2
3. VGVVVVGDVLVW    band 1
4. FAFPTPPPLLFD    band 3
5. RRVLVVPCIWHM    band 3
6. LWFRGGYLFFVV    band 2
7. DSGMLDFLLMAW    band 2
8. GVMSICRWMISV    band 2
9. LFYVSFLFMLLF    band 1
10. LGFSHTRAIFFV    band 3
11. SPVPITVAVGCR    band 2
12. RTALSSPRPALL    band 3
13. FFLFFLSFGCFL    band 2
14. LWFFVGFAVYGG    band 1
15. RDPLAPLLLAIP    band 3
16. REAFVVLAVFFH    band 1

* * *

Tested on: Saccharomyces cerevisiae
METHOD: protein stability index of tFT-peptide fusion (C-terminal peptide) (PSI (0-1 scale)); higher = more stable (slower turnover)
ASSAY CONDITIONS: genetic background: wild type; temperature: 30 C
RECORDED ENDPOINT: protein stability index

1) LVVWSSIVSGGG    0.675
2) RPFLPPPPHCPP    0.75
3) DSGMLDFLLMAW    0.598
4) NKLKEKNEKYKV    0.659
5) APGLPSFRSLFA    0.676
6) SARDVPPPPLTP    0.733
7) LRVGGKRREVMG    0.709
8) QQQSTKHSEERV    0.691
9) SPPHPPPLLLPP    0.655
10) FFVRSWWVELLF    0.424
11) FHVVPLTSPPPV    0.755
12) LKRRREGEPGKQ    0.625
13) KNRKSPSMNSKE    0.716
14) WGGWGVGGRVLW    0.675
15) ISWLLSFLGVVF    0.601
16) KKKKKKQEKNKK    0.694
17) QVDVLVCKLEVP    0.672
18) PYPPTSLPPTWQ    0.726
19) MGVGRFEWVVGG    0.665
20) PLLTPPPVLHHP    0.741
21) TFPPLLFVCSLL    0.594
22) VVSLGGWCLYIY    0.412
23) SQPLPNRLKTRG    0.695
24) NKEPKRKHKNNK    0.675
25) FFCLWFLSFLRF    0.572
26) PPPPPPSPPPSP    0.633
27) FAVLGGGVGGGW    0.708
28) ISHAGSVPDRSV    0.701
29) ASLAACSLTNSV    0.697
30) VFDFVFHLRFVV    0.115
31) DACPLAEGGGAA    0.717
32) YAVGSAGLGVGL    0.697
33) SAVSVATVVWSV    0.705
34) LCLREPTITTQW    0.786
35) PRAGPPPPPPSP    0.734
36) QGGTWKKLVKMI    0.226
37) FPLPHPCPPPPP    0.694
38) WRKMSNDIRGRW    0.799
39) KNGANREEYITK    0.686
40) AGTVGRGVSGGR    0.575
41) CTLVVGLFVLVV    0.362

* * *

Tested on: Saccharomyces cerevisiae
METHOD: protein stability index of tFT-peptide fusion (C-terminal peptide) (PSI (0-1 scale)); higher = more stable (slower turnover)
ASSAY CONDITIONS: genetic background: wild type; temperature: 30 C
RECORDED ENDPOINT: protein stability index

1) IKCCIGCSSICG    0.692
2) GSGQPDPRDAIG    0.677
3) WGVGVCSRVLRS    0.674
4) SIVGGVVRVLCG    0.603
5) LPHPLPFCFSLY    0.515
6) VIVLVQDVALQL    0.7
7) DPPFPSGPPLPL    0.674
8) WWSAHIRAGASL    0.672
9) VWRCWGGKGQDS    0.729
10) PPPPRPPPPATL    0.662
11) GSGTRNLLFIKS    0.671
12) FSFLLYASLVTH    0.314
13) LPPPVSPLVCLL    0.752
14) LGGCVSYINLLA    0.308
15) VEFVSKSLGVGW    0.676
16) KDGGRGGLNWCV    0.745
17) AQPAPAPALADV    0.667
18) FLRGLCGKMSKG    0.673
19) EKRKEKKKRGKE    0.797
20) LWFFVGFAVYGG    0.455
21) IARYLGRYERNV    0.687
22) KKKKTEKKKTKQ    0.656
23) APSTFRPPTPPS    0.711
24) GGRPVTGIAGML    0.666
25) GLGWGGRGMRVV    0.695
26) SCPPRLVFPRPS    0.66
27) VGGVWGLGVRPR    0.693
28) PFPTPPPIPRSP    0.464
29) GLDVFFPMDRQA    0.764
30) GDGQETEKNNAE    0.604
31) AWLAQIKLGWGL    0.68
32) VGREVSYGRGGD    0.655
33) PHVSGYTVLIWF    0.559
34) GLRLCLSMWLRD    0.633
35) VRRETGPPRAPT    0.672
36) PPPPPSSPPALL    0.663
37) SSSFLVLSSHFI    0.701
38) RFSLGLIFLPSL    0.68
39) PPLPPPPASVPP    0.503
40) EEFTSRAFRISW    0.744
41) PPPPPPLHATPL    0.697
